Tested on: SW620
protocolSummary: cells
Parameters: species or system SW620 MTHFD2-/-, HCT116, PA-TU-8988T; Resazurin cell viability dose-response in 384-well plates, fluorescence at 595 nm, logistic fit
conditionInfo: Homo sapiens, SW-620, 96 h, Figure 1=1e; C=RPMI+GlutaMAX (10% FBS, 1% P/S); D=Vehicle; 96 h viability, no metabolite rescue (vehicle); read-out: EC50 compound
quantityKind: pEC50
Numbers only, as −log10 of the molar value.

What value of measured pEC50 is listed for Cc1[nH]nc2c1C(c1cc(CO)cc(-c3ccccc3)c1)(C(C)C)C(C#N)=C(N)O2 (stereo not shown) ?
5.80

---

Test system: SW620
protocolSummary: cells
Parameters: species or system SW620 MTHFD2-/-, HCT116, PA-TU-8988T; Resazurin cell viability dose-response in 384-well plates, fluorescence at 595 nm, logistic fit
conditionInfo: Homo sapiens, SW-620, 96 h, Figure 1=Extended Data Fig.5f; C=RPMI+GlutaMAX (5% dFBS, 1% P/S); D=Vehicle; 96 h viability, no metabolite rescue (vehicle); read-out: EC50 compound
quantityKind: EC50 (nM)
Give bare numbers, in nM.

Lab request: please report EC50 under test system SW620 for Nc1nc(N)c(CC(=O)Nc2cnc(C(=O)N[C@@H](CCC(=O)O)C(=O)O)c(F)c2)c(=O)[nH]1
439

---

System: SW620 WT
protocolSummary: cells
Design: species or system SW620 MTHFD2-/-, HCT116, PA-TU-8988T; Resazurin cell viability dose-response in 384-well plates, fluorescence at 595 nm, logistic fit
conditionInfo: Homo sapiens, SW-620, 96 h, Figure 1=3k; C=RPMI+GlutaMAX (5% dFBS, 1% P/S); D=Vehicle; 96 h viability, no metabolite rescue (vehicle); read-out: EC50 compound
quantityKind: pEC50
Give bare numbers, as −log10 of the molar value.

What value of measured pEC50 is listed for Cc1c(N2CCN(C)[C@@H](C)C2)ccc2c3c(c(=O)oc12)CN(C(=O)c1ccc(NS(C)(=O)=O)c(OC(F)(F)F)c1)CC3 ?
6.02

---

System: SW620
protocolSummary: cells
Parameters: species or system SW620 MTHFD2-/-, HCT116, PA-TU-8988T; Resazurin cell viability dose-response in 384-well plates, fluorescence at 595 nm, logistic fit
conditionInfo: Homo sapiens, SW-620, 96 h, Figure 1=Extended Data Fig. 2b; C=RPMI+GlutaMAX (10% FBS, 1% P/S); D=Vehicle; 96 h viability, no metabolite rescue (vehicle); read-out: EC50 compound
Task for the reader: assign each of the following molecules its reported EC50.
Answers are plain numbers, in nM.

Sample records with EC50:
What value of measured EC50 is listed for Nc1nc(N)c(CC(=O)Nc2cnc(C(=O)N[C@@H](CCC(=O)O)C(=O)O)c(F)c2)c(=O)[nH]1 [TH9619] ?
27.8

What value of measured EC50 is listed for O=c1[nH]cc(F)c(=O)[nH]1 [5-FU] ?
5170

New cases:
What value of measured EC50 is listed for CN(Cc1cnc2nc(N)nc(N)c2n1)c1ccc(C(=O)N[C@@H](CCC(=O)O)C(=O)O)cc1 [MTX] ?
9.21

---

Test system: SW620 WT
protocolSummary: cells
Parameters: species or system SW620 MTHFD2-/-, HCT116, PA-TU-8988T; Resazurin cell viability dose-response in 384-well plates, fluorescence at 595 nm, logistic fit
conditionInfo: Homo sapiens, SW-620, 96 h, Figure 1=6i; C=RPMI+GlutaMAX (5% dFBS, 1% P/S); D=Vehicle; 96 h viability, no metabolite rescue (vehicle); read-out: EC50 compound
quantityKind: EC50 (nM)
Answers are plain numbers, in nM.

What value of measured EC50 is listed for Nc1nc(N)c(CC(=O)Nc2cnc(C(=O)N[C@@H](CCC(=O)O)C(=O)O)c(F)c2)c(=O)[nH]1 ?
1420

Reference source: paper PMC10132981
